target or system: T1, human G-protein-coupled receptor family C group 5 member D (GPRC5D) (human, UniProt Q9NZD1 1-345)
T1 construct: whole, on cells; also called human GPRC5D protein
T1 sequence (Q9NZD1 whole entry): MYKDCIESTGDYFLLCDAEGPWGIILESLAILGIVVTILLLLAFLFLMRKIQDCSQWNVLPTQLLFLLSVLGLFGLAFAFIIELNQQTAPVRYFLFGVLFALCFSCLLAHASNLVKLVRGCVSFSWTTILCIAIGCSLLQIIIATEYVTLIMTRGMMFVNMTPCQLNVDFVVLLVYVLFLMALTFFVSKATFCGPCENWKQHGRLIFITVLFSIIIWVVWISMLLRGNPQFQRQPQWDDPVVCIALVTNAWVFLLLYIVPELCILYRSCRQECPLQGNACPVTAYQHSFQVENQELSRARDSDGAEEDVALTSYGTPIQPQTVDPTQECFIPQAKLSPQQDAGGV
protocol description: FACS, NCI-H929 cells
reported property: LogEC50
// keep it numeric: no unit symbol after the value

* 34-H1L1 (antibody, V domains shown, humanized 34D3H1, VH v1 x VL v1) VH: EVQLVESGGGLVKPGGSLRLSCAASGFTFSSYGMSWVRQAPGKGLEWVSTISSGGSYTYYPDSVKGRFTISRDNAKNSLYLQMNSLRAEDTAVYYCARQGGDAMDYWGQGTLVTVSS VL: DIQMTQSPSSLSASVGDRVTITCRASQSINNNLHWYQQKPGKAPKLLIYYASQSISGVPSRFSGSGSGTDFTLTISSLQPEDFATYYCQQSNSRLTFGGGTKVEIK | 0.805

Kindly review the next binder as well.
Entry 58-H1L1 (antibody, V domains shown, humanized 58F9G10, VH v1 x VL v1) VH: QVQLVQSGAEVKKPGASVKVSCKASGYSFTGYYIHWVRQAPGQGLEWMGYISSYNAATSFNQKFKGRVTMTRDTSTSTVYMELSSLRSEDTAVYYCARTELRGPWFAYWGQGTLVTVSS VL: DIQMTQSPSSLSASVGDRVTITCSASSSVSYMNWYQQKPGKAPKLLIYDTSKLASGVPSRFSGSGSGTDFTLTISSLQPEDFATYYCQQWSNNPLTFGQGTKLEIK , LogEC50 reported as 0.165
